Tested on: primary rat hepatocytes
Assay: Metabolism of BDE-99 in primary rat hepatocytes, GC/MS of extracts
Type: in vitro ADME
Settings: hepatocytes exposed to 10 µM BDE-99; compared with commercial standards
measurement_kind: metabolite of BDE-99 detected by GC/MS (qualitative)

Oc1cc(Oc2ccc(Br)cc2Br)c(Br)cc1Br [5-OH-BDE-47] ... identified
Oc1cc(Br)c(Br)cc1Br [2,4,5-tribromophenol] ... identified
Oc1cc(Oc2cc(Br)c(Br)cc2Br)c(Br)cc1Br [5′-OH-BDE-99] ... identified
